assay: Competitive inhibition of Cu2-amyloid beta (1 to 20) complex-induced DTBC oxidation by spectrophotometry; format: functional
assay readout: Ki (µM)

a: Cc1ncc(COP(=O)(O)O)c(C=O)c1O [PYRIDOXAL PHOSPHATE ANHYDROUS]
b: Cc1ncc(CO)c(C=O)c1O
// query Hi there, can you help? I need to know whether a or b has lower measured Ki. When you have decided, please share the label of that item.
// result a

* * *

test: Inhibition of Cu2-amyloid beta (1 to 16) complex-induced THB oxidation by spectrophotometry; assay type: functional
Structures can show the parent of a compound that is named as a salt.
assay readout: Ki (mM)
Kindly provide the numeric value in mM only, without the unit symbol.

response.value for Cc1ncc(CO)c(CO)c1O [PYRIDOXINE HYDROCHLORIDE] (field: Ki) = 8.67

* * *

experiment: Inhibition of Cu2-amyloid beta (1 to 40) complex-induced dopamine oxidation by spectrophotometry; assay type: functional
assay readout: IC50 (mM)
Please give a number only; it is taken to be in mM.

Cc1ncc(CO)c(CN)c1O [PYRIDOXAMINE] yielded IC50 of 7

* * *

assay: Competitive inhibition of full-length Cu2-amyloid beta (1 to 40) complex-induced dopamine oxidation by Lineweaver-Burk plot analysis; assay type: functional
assay readout: Ki (µM)
Quick note: give the figure in µM, leave out the unit.

Consider `Cc1ncc(CO)c(CN)c1O` . Its measured Ki is 1420

* * *

assay: Inhibition of Cu2-amyloid beta (1 to 16) complex-induced DTBC oxidation by spectrophotometry; format: functional
Counter-ions that a name gives are not always drawn.
assay readout: pKi
Bear in mind: pKi is minus log10 of a mol/L concentration; give just that figure.

Entry Cc1ncc(CO)c(CO)c1O [PYRIDOXINE HYDROCHLORIDE] , pKi reported as 2.30

* * *

assay: Inhibition of Cu2-amyloid beta (1 to 20) complex-induced dopamine oxidation by spectrophotometry; type: functional
Where a name gives a salt, the structure may show the parent alone.
assay readout: Ki (mM)

a: Cc1ncc(CO)c(CO)c1O [PYRIDOXINE HYDROCHLORIDE]
b: Cc1ncc(CO)c(CN)c1O
// query For this pair, a and b , which shows a numerically higher Ki? Write the label of whichever entry you select.
// result a
